test-system: SARS-CoV S protein (Urbani strain) expressed on ExpiCHO cells (SARS-CoV, UniProt P59594 14-1255)
measurement-description: flow cytometry on ExpiCHO cells transfected with SARS-CoV S

binder: nCoV-17 mAb (antibody, V domains shown) VH: QVQLVESGGGVVQPGRSLRLSCAASGFTFSSYAIHWVRQAPGKGLEWLAVISFDGRHKYYADSVKGRFTISRDNSKNTVYLQMNSLRVEDTAVYSCARDIRHLIVVVSDMDVWGQGTTVTVSS VL: DVVMTQSPLSLPVTLGQPASISCRSSQSLVNSDGDTSLNWFQQRPGQSPRRLIYKVSNRDSGVPDRISGSGSGTDFTLKISRVEAEDVGVYYCMQGTHWPPTFGQGTKLEIK
binding result: binds
//
binder: nCoV-20 mAb (antibody, V domains shown) VH: QVTLRESGPALVKPTQTLTLTCTFSGFSLTTTEMCVGWIRQPPGKALEWLALIDWDDDKYYSTSLRTRLTISKDTSKNQVVLTMTNMDPVDTATYYCARMFGRKRLAPTGFDPWGQGTLVTVSS VL: DIVMTQSPLSLPVTPGEPASISCRSSQSLLHSNGKNYLDWYLQKPGQSPQLLICLGSYRASGVPDRFSGSGSGTDFTLKISRVEAEDVGVYYCMQALQTPWTFGQGTKVEIK
binding result: binds
